- MEASURED_TARGET: Tyrosine-protein kinase JAK2 (Homo sapiens, UniProt O60674)
- Sequence (O60674 whole entry): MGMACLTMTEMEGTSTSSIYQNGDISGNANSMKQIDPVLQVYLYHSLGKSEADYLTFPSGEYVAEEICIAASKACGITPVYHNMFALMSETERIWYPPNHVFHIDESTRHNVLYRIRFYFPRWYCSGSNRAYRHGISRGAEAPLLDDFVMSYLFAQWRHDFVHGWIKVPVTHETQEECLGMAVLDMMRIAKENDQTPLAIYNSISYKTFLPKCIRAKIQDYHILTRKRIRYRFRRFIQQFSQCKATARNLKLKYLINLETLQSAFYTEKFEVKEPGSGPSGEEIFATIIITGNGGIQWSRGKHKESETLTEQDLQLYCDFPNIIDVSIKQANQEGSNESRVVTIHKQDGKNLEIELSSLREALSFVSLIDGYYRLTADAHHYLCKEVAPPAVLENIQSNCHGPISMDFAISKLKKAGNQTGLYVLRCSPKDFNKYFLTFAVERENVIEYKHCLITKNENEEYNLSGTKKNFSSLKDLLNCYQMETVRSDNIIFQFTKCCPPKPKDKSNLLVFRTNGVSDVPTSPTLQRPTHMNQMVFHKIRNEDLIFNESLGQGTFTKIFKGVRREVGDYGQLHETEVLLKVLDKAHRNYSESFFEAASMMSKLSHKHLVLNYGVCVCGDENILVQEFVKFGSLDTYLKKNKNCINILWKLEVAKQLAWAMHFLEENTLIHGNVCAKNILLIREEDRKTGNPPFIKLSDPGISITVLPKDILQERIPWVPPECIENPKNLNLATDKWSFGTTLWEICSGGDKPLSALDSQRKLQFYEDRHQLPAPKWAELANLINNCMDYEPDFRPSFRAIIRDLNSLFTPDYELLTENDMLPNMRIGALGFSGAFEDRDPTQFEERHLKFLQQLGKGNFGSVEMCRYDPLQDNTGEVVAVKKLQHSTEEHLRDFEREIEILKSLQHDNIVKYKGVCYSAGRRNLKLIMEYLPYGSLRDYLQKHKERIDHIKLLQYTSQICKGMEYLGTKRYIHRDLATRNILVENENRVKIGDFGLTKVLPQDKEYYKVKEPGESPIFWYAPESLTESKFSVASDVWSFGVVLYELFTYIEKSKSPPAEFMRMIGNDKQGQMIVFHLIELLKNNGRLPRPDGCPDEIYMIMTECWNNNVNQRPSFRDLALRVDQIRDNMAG
Overview of reported pIC50 across a group of compounds:
Hey, just a heads up that pIC50 is the negative log base 10 of the concentration in molar.

{"columns": ["SMILES_RECORD", "MEASURED_TARGET", "RESULT"],
 "data": [
  ["CNCCn1c2ccc(C(N)=O)cc2nc1[C@H]1CC[C@H](O)CC1", "Tyrosine-protein kinase JAK2 (Homo sapiens, UniProt O60674)", 5.41]
]}

In the following, a different compound is considered.
*Q* Name the value of pIC50 reported for `CNCCn1c(C2CCNCC2)nc2cc(C(N)=O)ccc21` when tested on Tyrosine-protein kinase JAK2 (Homo sapiens, UniProt O60674).
*A* 5.51

----------
Overview of reported pIC50 across a group of molecules:
- MEASURED_TARGET: Non-receptor tyrosine-protein kinase TYK2 (Homo sapiens, UniProt P29597)
- Sequence (P29597 whole entry): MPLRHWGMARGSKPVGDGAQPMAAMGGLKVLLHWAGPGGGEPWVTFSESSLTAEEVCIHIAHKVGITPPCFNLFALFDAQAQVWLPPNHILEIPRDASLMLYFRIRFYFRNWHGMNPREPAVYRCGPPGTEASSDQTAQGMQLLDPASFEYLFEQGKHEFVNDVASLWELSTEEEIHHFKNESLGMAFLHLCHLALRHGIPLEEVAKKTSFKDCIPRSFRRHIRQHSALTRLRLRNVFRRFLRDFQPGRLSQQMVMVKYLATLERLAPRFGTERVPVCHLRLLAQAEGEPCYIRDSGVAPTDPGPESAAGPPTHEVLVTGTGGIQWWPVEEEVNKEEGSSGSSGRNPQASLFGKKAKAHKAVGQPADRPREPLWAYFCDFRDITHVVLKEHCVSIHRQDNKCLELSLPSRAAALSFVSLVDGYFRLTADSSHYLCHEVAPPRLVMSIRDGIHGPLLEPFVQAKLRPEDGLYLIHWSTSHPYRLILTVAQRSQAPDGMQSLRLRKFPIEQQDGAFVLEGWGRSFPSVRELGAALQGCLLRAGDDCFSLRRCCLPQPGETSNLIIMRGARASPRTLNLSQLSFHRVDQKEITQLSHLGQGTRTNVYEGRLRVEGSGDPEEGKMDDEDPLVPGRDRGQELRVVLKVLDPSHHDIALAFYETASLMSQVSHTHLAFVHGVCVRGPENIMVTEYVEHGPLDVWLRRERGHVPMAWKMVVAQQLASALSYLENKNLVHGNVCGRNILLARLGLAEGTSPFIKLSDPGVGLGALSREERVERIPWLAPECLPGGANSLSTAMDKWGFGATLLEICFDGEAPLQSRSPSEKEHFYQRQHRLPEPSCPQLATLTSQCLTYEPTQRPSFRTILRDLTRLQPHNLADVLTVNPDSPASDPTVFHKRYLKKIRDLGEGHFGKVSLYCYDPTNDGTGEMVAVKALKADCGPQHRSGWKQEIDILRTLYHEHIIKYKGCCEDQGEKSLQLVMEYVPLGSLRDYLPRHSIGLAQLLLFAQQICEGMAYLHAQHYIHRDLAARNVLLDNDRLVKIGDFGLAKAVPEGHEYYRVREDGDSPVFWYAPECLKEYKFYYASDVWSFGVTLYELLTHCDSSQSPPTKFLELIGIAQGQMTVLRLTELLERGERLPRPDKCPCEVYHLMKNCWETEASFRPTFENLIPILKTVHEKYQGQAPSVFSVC
Hey, just a heads up that pIC50 is the negative log base 10 of the concentration in molar.

Would you please look over these solved cases?
{"columns": ["SMILES_RECORD", "pIC50"],
 "data": [
  ["CNCCn1c2ccc(C(N)=O)cc2nc1[C@H]1CC[C@H](O)CC1", 5.25],
  ["C[C@@H](O)Cn1c2ccc(C(N)=O)cc2nc1[C@H]1CC[C@H](O)CC1", 4.59],
  ["CNCCn1c(C2CCNCC2)nc2cc(C(N)=O)ccc21", 5.39],
  ["NCCCn1c2ccc(C(N)=O)cc2nc1[C@H]1CC[C@H](O)CC1", 4.51]
]}

*Q* Using known records, supply pIC50 for `NCCCn1c(C2CCNCC2)nc2cc(C(N)=O)ccc21`
*A* 4.51

----------
Below are molecules with their IC50 as measured on Tyrosine-protein kinase JAK1 (Homo sapiens).
Sequence (P23458 whole entry): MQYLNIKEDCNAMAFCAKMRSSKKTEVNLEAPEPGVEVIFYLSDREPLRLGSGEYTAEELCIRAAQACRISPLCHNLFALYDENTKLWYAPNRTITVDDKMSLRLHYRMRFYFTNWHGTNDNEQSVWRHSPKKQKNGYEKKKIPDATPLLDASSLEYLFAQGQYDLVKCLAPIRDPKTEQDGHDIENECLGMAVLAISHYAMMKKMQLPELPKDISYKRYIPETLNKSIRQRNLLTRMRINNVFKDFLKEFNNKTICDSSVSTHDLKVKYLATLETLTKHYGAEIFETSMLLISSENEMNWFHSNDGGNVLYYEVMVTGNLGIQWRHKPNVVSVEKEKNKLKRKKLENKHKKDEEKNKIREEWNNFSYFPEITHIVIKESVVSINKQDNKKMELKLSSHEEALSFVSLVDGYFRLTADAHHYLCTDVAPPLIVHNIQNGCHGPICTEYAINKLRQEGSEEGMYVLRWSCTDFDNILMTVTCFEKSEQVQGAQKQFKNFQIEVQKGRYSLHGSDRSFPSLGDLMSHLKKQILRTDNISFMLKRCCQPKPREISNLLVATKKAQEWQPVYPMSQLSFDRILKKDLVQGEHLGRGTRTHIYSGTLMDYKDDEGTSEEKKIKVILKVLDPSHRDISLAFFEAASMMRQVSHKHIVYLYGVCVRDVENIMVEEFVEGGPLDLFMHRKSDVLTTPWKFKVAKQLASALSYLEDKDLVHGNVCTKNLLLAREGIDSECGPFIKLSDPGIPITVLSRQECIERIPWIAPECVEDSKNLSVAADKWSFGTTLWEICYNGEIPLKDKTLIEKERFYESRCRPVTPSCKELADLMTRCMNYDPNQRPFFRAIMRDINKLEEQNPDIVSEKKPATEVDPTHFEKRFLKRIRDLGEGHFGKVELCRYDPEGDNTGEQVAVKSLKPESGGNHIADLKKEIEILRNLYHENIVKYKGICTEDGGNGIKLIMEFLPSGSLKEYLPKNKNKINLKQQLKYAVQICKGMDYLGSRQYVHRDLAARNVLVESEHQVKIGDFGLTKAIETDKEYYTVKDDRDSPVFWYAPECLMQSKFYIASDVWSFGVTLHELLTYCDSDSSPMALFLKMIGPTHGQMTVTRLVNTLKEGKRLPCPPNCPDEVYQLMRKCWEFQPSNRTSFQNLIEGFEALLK
Write the value in nM as a bare number.

Would you please look over these solved cases?
{"columns": ["SMILES_RECORD", "MEASURED_TARGET", "UNITS_TEXT", "IC50"],
 "data": [
  ["NC(=O)c1ccc2c(c1)nc([C@H]1CC[C@H](O)CC1)n2CCO", "Tyrosine-protein kinase JAK1 (Homo sapiens)", "nM", 80],
  ["NC(=O)c1ccc2c(c1)nc([C@H]1CC[C@H](O)CC1)n2CCCO", "Tyrosine-protein kinase JAK1 (Homo sapiens)", "nM", 7000]
]}

In the following, a different molecule is considered.
*Q* Using known records, supply IC50 for `CNCCn1c2ccc(C(N)=O)cc2nc1[C@H]1CC[C@H](O)CC1`
*A* 150
